# EXPERIMENTAL_SYSTEM: T1, recombinant human IL-2 receptor beta containing a His-tag and Avi-Tag (R&D Systems #AVI10459) (human, UniProt P14784 27-239)
# T1 construct: bought protein, held on the Octet SAX2 sensor; also called CD122; IL-2Rβ
# T1 sequence (looked up): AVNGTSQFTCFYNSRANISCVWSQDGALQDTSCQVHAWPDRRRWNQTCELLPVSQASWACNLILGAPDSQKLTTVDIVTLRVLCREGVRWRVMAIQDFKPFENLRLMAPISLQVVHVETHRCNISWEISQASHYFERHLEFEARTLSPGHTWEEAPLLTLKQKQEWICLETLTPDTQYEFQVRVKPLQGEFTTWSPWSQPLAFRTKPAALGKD
# ASSAY_METHOD_TEXT: BLI (Octet), receptor on SAX2 sensor, IL-2 as analyte
Bridges are numbered along the chain shown (N, C = ends). [ ]: non-standard residue; d: D form. Ygp = O-(8x polyethylene glycol-amino)-tyrosine; Yn3 = O-(9x polyethylene glycol-azido)-tyrosine; hSer = N[C@@H](CCO)C(=O)O; Nle = CCCC[C@H](N)C(=O)O
MEASURED_ATTRIBUTE: koff (s⁻¹)
Report the figure in s⁻¹ without appending any unit label.

Look at this binder and give its reported koff. CMP-138 (ligand, disulfide 58-105; bridge N-29; not fully specified (residue 29, bridges)) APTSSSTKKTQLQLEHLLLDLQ[Nle]ILNGIENYKNPKLTR[Nle]L[hSer][Yn3]KF[Ygp][Nle]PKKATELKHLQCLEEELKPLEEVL[hSer]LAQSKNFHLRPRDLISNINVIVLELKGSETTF[hSer]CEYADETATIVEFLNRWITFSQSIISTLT
0.0105
